# Tested on: HMOX-1 mRNA
# experiment: HMOX-1 mRNA increase in response to Bach1 siNA in human A549 cells
# Assay type: cell-based
# experimental_conditions: 24 hrs post-transfection, mean ± SD
# Protocol: A series of probes and primers were used to detect the various mRNA transcripts of the genes of Bach1, HMOX-1, and GAPDH in mouse and human cell lines. The assays were performed on an ABI 7900 instrument, according to the manufacturer's instructions. […] All calculations of IC50s were performed using SigmaPlot 10.0 software. The data were analyzed using the sigmoidal dose-response (variable slope) equation for simple ligand binding. […]
property_label: EC50 (pM)

substance="29961-DC (sense CUACACUGCUAAACUGAUUTT; antisense AAUCAGUUUAGCAGUGUAGUU; inverted abasic end caps, TT overhangs, modified nucleotides, further chemistry not given here)" property_label=EC50 readout_number=10.4
substance="29988-DC (sense AUUUGAACCUUUAAUUCAGTT; antisense CUGAAUUAAAGGUUCAAAUUU; inverted abasic end caps, TT overhangs, modified nucleotides, further chemistry not given here)" property_label=EC50 readout_number=38.2
substance="29957-DC (sense GCAGUUACUUCCACUCAAGTT; antisense CUUGAGUGGAAGUAACUGCUU; inverted abasic end caps, TT overhangs, modified nucleotides, further chemistry not given here)" property_label=EC50 readout_number=33.6
substance="29964-DC (sense GAUUUGCAGGUGAUGUUAATT; antisense UUAACAUCACCUGCAAAUCUU; inverted abasic end caps, TT overhangs, modified nucleotides, further chemistry not given here)" property_label=EC50 readout_number=21.8
substance="29956-DC (sense GUCUGAGUGUCCGUGGUUATT; antisense UAACCACGGACACUCAGACUU; inverted abasic caps (B), 2'-modified nucleotides, further chemistry not given here)" property_label=EC50 readout_number=30.9
substance="29947-DC (sense GGAAUCCUGCUUUCAGUUUTT; antisense AAACUGAAAGCAGGAUUCCUU; inverted abasic caps (B), 2'-modified nucleotides, further chemistry not given here)" property_label=EC50 readout_number=37.7

====

Quick reference: Maximum mRNA knockdown of the listed items.
# System: Bach1 mRNA
# experiment: Bach1 mRNA knockdown and potency in human bronchial epithelial cells (NHBE)
# Assay type: cell-based
# experimental_conditions: Bach1 mRNA, 48 hours post transfection, mean of 3 donors
property_label: Maximum mRNA knockdown (%)

substance="29957-DC (sense GCAGUUACUUCCACUCAAGTT; antisense CUUGAGUGGAAGUAACUGCUU; inverted abasic end caps, TT overhangs, modified nucleotides, further chemistry not given here)" measured_on="Bach1 mRNA" property_label="Maximum mRNA knockdown" readout_number=70
substance="29988-DC (sense AUUUGAACCUUUAAUUCAGTT; antisense CUGAAUUAAAGGUUCAAAUUU; inverted abasic end caps, TT overhangs, modified nucleotides, further chemistry not given here)" measured_on="Bach1 mRNA" property_label="Maximum mRNA knockdown" readout_number=70

====

Some substances, each annotated with its measured Maximum mRNA knockdown.
# Test system: Bach1 mRNA
# experiment: Bach1 mRNA knockdown and potency in human bronchial epithelial cells (NHBE)
# Type: cell-based
# experimental_conditions: Bach1 mRNA, 48 hours post transfection, mean of 3 donors
property_label: Maximum mRNA knockdown (%)

substance="29984-DC (sense GUUAAAGGAUUUGAACCUUTT; antisense AAGGUUCAAAUCCUUUAACUU; inverted abasic end caps, TT overhangs, modified nucleotides, further chemistry not given here)" readout_number=65
substance="29956-DC (sense GUCUGAGUGUCCGUGGUUATT; antisense UAACCACGGACACUCAGACUU; inverted abasic caps (B), 2'-modified nucleotides, further chemistry not given here)" readout_number=68
substance="29961-DC (sense CUACACUGCUAAACUGAUUTT; antisense AAUCAGUUUAGCAGUGUAGUU; inverted abasic end caps, TT overhangs, modified nucleotides, further chemistry not given here)" readout_number=80
substance="29947-DC (sense GGAAUCCUGCUUUCAGUUUTT; antisense AAACUGAAAGCAGGAUUCCUU; inverted abasic caps (B), 2'-modified nucleotides, further chemistry not given here)" readout_number=65
substance="29964-DC (sense GAUUUGCAGGUGAUGUUAATT; antisense UUAACAUCACCUGCAAAUCUU; inverted abasic end caps, TT overhangs, modified nucleotides, further chemistry not given here)" readout_number=72

====

# Test system: Bach1 mRNA
# experiment: Initial screen: Bach1 mRNA knock-down in mouse NIH 3T3 cells (96-well transfection, quantitative RT-PCR)
# Assay type: cell-based
# experimental_conditions: mouse NIH3T3 cells, n = 2, 24 hrs post-transfection, protocol 10 nM siNA
[invAb] = inverted abasic unit; d = 2'-deoxy (DNA); m = 2'-O-methyl; r = 2'-OH (RNA); f = 2'-fluoro
A collection of substances and their measured % KD
property_label: % KD (%)

substance="29979-DC: Bach1 siNA duplex, target site 1523 (mouse); sense B cGGAcuuucAcAAcucucA TTB (SEQ 107); antisense UGAGAGuuGuGAAAGuccGUU (SEQ 108) (sense CGGACUUUCACAACUCUCATT; antisense UGAGAGUUGUGAAAGUCCGUU; sense: DNA at AGT, 2'-fluoro at CU, [invAb] at 5' end, 3' end, backbone not given here; antisense: sugars from the 5' end rrrmmmffmfmmmmmfffmmm, backbone not given here)" value_unit=% readout_number=62.4
substance="29971-DC: Bach1 siNA duplex, target site 2488 (mouse); sense B GuAGcuuucuGuuGAGGGA TTB (SEQ 91); antisense UCCcucAAcAGAAAGcuAcUU (SEQ 92) (sense GUAGCUUUCUGUUGAGGGATT; antisense UCCCUCAACAGAAAGCUACUU; sense: sugars from the 5' end rfddffffffdffdddddddd, [invAb] at 5' end, 3' end, backbone not given here; antisense: sugars from the 5' end rrrfffmmfmmmmmmffmfmm, backbone not given here)" value_unit=% readout_number=75
substance="29981-DC: Bach1 siNA duplex, target site 331 (mouse); sense B cAGcuAcuuccAcucGAGA TTB (SEQ 111); antisense UCUcGAGuGGAAGuAGcuGUU (SEQ 112) (sense CAGCUACUUCCACUCGAGATT; antisense UCUCGAGUGGAAGUAGCUGUU; sense: DNA at AGT, 2'-fluoro at CU, [invAb] at 5' end, 3' end, backbone not given here; antisense: sugars from the 5' end rrrfmmmfmmmmmfmmffmmm, backbone not given here)" value_unit=% readout_number=3.5
substance="29955-DC: Bach1 siNA duplex, target site 737; sense B GAGuccAuGuGcuuAGAGA TTB (SEQ 59); antisense UCUcuAAGcAcAuGGAcucUU (SEQ 60) (sense GAGUCCAUGUGCUUAGAGATT; antisense UCUCUAAGCACAUGGACUCUU; sense: sugars from the 5' end rrrfffdfdfdfffddddddd, [invAb] at 5' end, 3' end, backbone not given here; antisense: sugars from the 5' end rrrffmmmfmfmfmmmfffmm, backbone not given here)" value_unit=% readout_number=−12.2
substance="29964-DC (sense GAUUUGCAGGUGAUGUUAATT; antisense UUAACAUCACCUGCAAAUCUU; inverted abasic end caps, TT overhangs, modified nucleotides, further chemistry not given here)" value_unit=% readout_number=19.6

====

Let's look at some substances and their measured % KD.
# System: Bach1 mRNA
# experiment: Initial screen: Bach1 mRNA knock-down in mouse NIH 3T3 cells (96-well transfection, quantitative RT-PCR)
# Assay type: cell-based
# experimental_conditions: mouse NIH3T3 cells, n = 2, 24 hrs post-transfection, protocol 10 nM siNA
[invAb] = inverted abasic unit; m = 2'-O-methyl; r = 2'-OH (RNA); f = 2'-fluoro
property_label: % KD (%)

substance="29975-DC: Bach1 siNA duplex, target site 1893 (mouse); sense B GucGcAAGAGGAAAcuuGA TTB (SEQ 99); antisense UCAAGuuuccucuuGcGAcUU (SEQ 100) (sense GUCGCAAGAGGAAACUUGATT; antisense UCAAGUUUCCUCUUGCGACUU; sense: DNA at AGT, 2'-fluoro at CU, [invAb] at 5' end, 3' end, backbone not given here; antisense: sugars from the 5' end rrrmmfffffffffmfmmfmm, backbone not given here)" property_label="% KD" readout_number=40.4
substance="29972-DC: Bach1 siNA duplex, target site 1262 (mouse); sense B GAuuuAuAucuGAAGucuA TTB (SEQ 93); antisense UAGAcuucAGAuAuAAAucUU (SEQ 94) (sense GAUUUAUAUCUGAAGUCUATT; antisense UAGACUUCAGAUAUAAAUCUU; sense: DNA at AGT, 2'-fluoro at CU, [invAb] at 5' end, 3' end, backbone not given here; antisense: sugars from the 5' end rrrmffffmmmfmfmmmffmm, backbone not given here)" property_label="% KD" readout_number=71.7
substance="29952-DC: Bach1 siNA duplex, target site 732; sense B cAuAuGAGuccAuGuGcuu TTB (SEQ 53); antisense AAGcAcAuGGAcucAuAuGUU (SEQ 54) (sense CAUAUGAGUCCAUGUGCUUTT; antisense AAGCACAUGGACUCAUAUGUU; sense: DNA at AGT, 2'-fluoro at CU, [invAb] at 5' end, 3' end, backbone not given here; antisense: sugars from the 5' end rrrfmfmfmmmfffmfmfmmm, backbone not given here)" property_label="% KD" readout_number=−15.7
substance="29983-DC: Bach1 siNA duplex, target site 363; sense B GAuuuGAAccuuuAAuucA TTB (SEQ 115); antisense UGAAuuAAAGGuucAAAucUU (SEQ 116) (sense GAUUUGAACCUUUAAUUCATT; antisense UGAAUUAAAGGUUCAAAUCUU; sense: DNA at AGT, 2'-fluoro at CU, [invAb] at 5' end, 3' end, backbone not given here; antisense: sugars from the 5' end rrrmffmmmmmfffmmmffmm, backbone not given here)" property_label="% KD" readout_number=49
